Molecular target: FLuc-C-HiBiT (firefly luciferase) (Photinus pyralis, UniProt P08659, form not given/L550V)
Sequence (P08659 2-550 L550V, form open): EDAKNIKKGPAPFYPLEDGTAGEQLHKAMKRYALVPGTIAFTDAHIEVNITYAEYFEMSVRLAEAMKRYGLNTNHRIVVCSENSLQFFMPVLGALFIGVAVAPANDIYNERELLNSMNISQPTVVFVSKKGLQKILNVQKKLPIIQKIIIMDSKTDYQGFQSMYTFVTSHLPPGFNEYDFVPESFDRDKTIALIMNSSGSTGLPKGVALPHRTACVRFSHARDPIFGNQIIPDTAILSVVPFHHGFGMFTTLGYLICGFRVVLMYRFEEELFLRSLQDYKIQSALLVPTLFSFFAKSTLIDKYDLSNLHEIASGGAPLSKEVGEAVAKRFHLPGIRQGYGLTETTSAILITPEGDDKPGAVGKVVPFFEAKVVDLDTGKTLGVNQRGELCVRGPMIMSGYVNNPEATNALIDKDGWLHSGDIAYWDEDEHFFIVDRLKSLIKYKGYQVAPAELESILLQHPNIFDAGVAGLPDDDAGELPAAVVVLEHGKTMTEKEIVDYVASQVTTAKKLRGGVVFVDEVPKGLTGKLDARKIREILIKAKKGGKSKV
Experiment: Firefly luciferase (FLuc) enzymatic luminescence assay, FLuc-C-HiBiT
Assay type: biochemical
Parameters: key: % normalized; no enzyme control = 100% inhibition, DMSO = 0
Settings: 10 nM FLuc-C-HiBiT; normalized activity; Log [Compound], M -5.91

[
  {
    "COMPOUND": "Cc1ccc(-n2ncc3c(N4CCCCCC4)ncnc32)cc1",
    "FLuc Enzyme": -85.3
  },
  {
    "COMPOUND": "COc1ccc(-c2nc(-c3ccc(C(=O)O)cc3)no2)cc1",
    "FLuc Enzyme": -85.2
  },
  {
    "COMPOUND": "CC(CNC(=O)C1CCN(C(=O)c2ncn3c2COC(c2ccccc2)C3)CC1)c1ccccc1 (centres unmarked)",
    "FLuc Enzyme": -29.8
  },
  {
    "COMPOUND": "O=C(O)c1cccc2c1CCN2C(=O)Nc1ccc(F)cc1",
    "FLuc Enzyme": -94.8
  },
  {
    "COMPOUND": "O=C(O)CCSc1nnc(-c2ccc(Cl)cc2Cl)o1",
    "FLuc Enzyme": -67.1
  },
  {
    "COMPOUND": "CNC(=O)c1cccc2c1CCN2C(=O)Nc1ccc(C)cc1",
    "FLuc Enzyme": -87.2
  },
  {
    "COMPOUND": "CC1CCCN(c2ncnc3c2cnn3-c2ccccc2)C1 (centres unmarked)",
    "FLuc Enzyme": -71.2
  },
  {
    "COMPOUND": "Fc1ccc(-c2cn3cc(Cc4ccccc4)sc3n2)cc1",
    "FLuc Enzyme": -78.6
  }
]

----------
Target: FLuc-C-HiBiT (Photinus pyralis)
Construct: firefly luciferase with C-terminal HiBiT tag, E. coli expressed
Sequence (P08659 whole entry, looked up): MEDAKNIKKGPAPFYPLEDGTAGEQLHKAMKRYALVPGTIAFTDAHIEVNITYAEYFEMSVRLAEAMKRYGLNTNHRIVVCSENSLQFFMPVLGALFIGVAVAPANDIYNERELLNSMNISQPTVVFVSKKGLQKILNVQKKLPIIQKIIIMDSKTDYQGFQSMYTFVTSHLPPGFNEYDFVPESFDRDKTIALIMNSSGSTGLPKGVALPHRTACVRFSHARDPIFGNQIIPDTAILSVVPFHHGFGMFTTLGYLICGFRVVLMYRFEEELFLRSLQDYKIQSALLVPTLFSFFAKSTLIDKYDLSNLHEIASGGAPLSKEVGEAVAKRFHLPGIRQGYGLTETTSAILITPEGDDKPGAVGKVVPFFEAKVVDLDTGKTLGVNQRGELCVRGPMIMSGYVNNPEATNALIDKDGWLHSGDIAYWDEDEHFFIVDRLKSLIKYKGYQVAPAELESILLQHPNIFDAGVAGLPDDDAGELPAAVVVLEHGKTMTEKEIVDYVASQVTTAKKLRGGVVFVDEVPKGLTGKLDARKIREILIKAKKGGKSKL
Assay: biochemical
Settings: enzyme activity, 10 uM ATP; read-out: IC50 or SDR50 (mM) / FLuc E

[
  {
    "COMPOUND": "COc1ccc(C(=O)NC2CCCN(c3cc(-c4ccc(F)cc4)n[nH]3)C2)cc1OC (stereo not shown)",
    "TGT": "FLuc-C-HiBiT (Photinus pyralis)",
    "SCALE UNIT": "mM",
    "QUAL": "=",
    "IC50": 0.0111
  },
  {
    "COMPOUND": "C[C@@H]1C(=O)O[C@H]2[C@H]1CC[C@@]1(C)Cc3sc(NC(=O)c4ccncc4)nc3[C@@H](C)[C@H]21",
    "TGT": "FLuc-C-HiBiT (Photinus pyralis)",
    "SCALE UNIT": "mM",
    "QUAL": "=",
    "IC50": 0.00057
  },
  {
    "COMPOUND": "O=C(COc1ccc(Cl)cc1)Nc1ccc(O)c(-c2nc3ccccc3s2)c1",
    "TGT": "FLuc-C-HiBiT (Photinus pyralis)",
    "SCALE UNIT": "mM",
    "QUAL": ">",
    "IC50": 0.03
  },
  {
    "COMPOUND": "CSCC(=O)Nc1nn(-c2ccc(F)cc2)c2cccc(N3CCOCC3)c12",
    "TGT": "FLuc-C-HiBiT (Photinus pyralis)",
    "SCALE UNIT": "mM",
    "QUAL": "=",
    "IC50": 0.00989
  }
]

These data points were gathered from paper PMC12064818.
